test system: epimastigote stage of T. cruzi; experiment: Antiparasitic activity, alamarBlue, epimastigotes; format: cell-based, Trypanosoma cruzi; conditions: Trypanosoma cruzi, 72 h, epimastigote stage of T. cruzi (Y strain), 72 h, alamarBlue; mean ± SD; NA: not active
Recorded IC50, one value per entry.
I'd appreciate it if you included the unit after the number.

molecule="CON(C)C(=O)/C=C/C#N [Compound Q27, (E)-3-Cyano-N-methoxy-N-methylacrylamide]" targetortestsystem="epimastigote stage of T. cruzi" metricname=IC50 reportedmeasurement="291 µM"

Problem: # query: IC50 | item CCCCCCCCOC(=O)/C=C/C#N [Compound Q5, (E)-Octyl 3-cyanoacrylate] | system: epimastigote stage of T. cruzi
Result: 34.3 µM

Problem: Also need N#C/C=C/C(=O)Oc1ccccc1 [Compound Q7, (E)-phenyl 3-cyanoacrylate] , thanks.
Result: 15.5 µM

Problem: Now try N#C/C=C/P(=O)(c1ccccc1)c1ccccc1 [Compound Q19, (E)-3-(diphenylphosphoryl)acrylonitrile] .
Result: 14.6 µM
